Quick reference for inhibition at 5 µM among some compounds
# system.tested: S. aureus (SAU) GyrB ATPase (Staphylococcus aureus)
# assay.comment: S. aureus GyrB ATPase inhibition, ammonium molybdate/malachite green phosphate detection assay
# Assay type: biochemical
# experimental.context: compound concentration 5 μM (values marked *)

record.smiles | system.tested | measurement.units | inhibition at 5 µM
CCNC(=O)Nc1ccc(-c2nc(C(=O)NC3CC3)c(C(=O)NOC)s2)cn1 | S. aureus (SAU) GyrB ATPase (Staphylococcus aureus) | % | 96.7
CCNC(=O)Nc1cccc(-c2ccc(C(=O)OCC)cc2)n1 | S. aureus (SAU) GyrB ATPase (Staphylococcus aureus) | % | 1.28
CCNC(=O)Nc1ccc(-c2ncc(C(=O)NOC)s2)cn1 | S. aureus (SAU) GyrB ATPase (Staphylococcus aureus) | % | 42.5
CCNC(=O)Nc1ncc(-c2ncc(C(=O)OC)s2)cn1 | S. aureus (SAU) GyrB ATPase (Staphylococcus aureus) | % | 99.5

---

# system.tested: S. aureus (SAU) GyrB ATPase (Staphylococcus aureus)
# assay.comment: S. aureus GyrB ATPase inhibition, ammonium molybdate/malachite green phosphate detection assay
# Assay type: biochemical
# experimental.context: read-out: S. aureus (SAU) GyrB ATPase % Inhibition, compound concentration 12.5 μM
# Method: Compounds were tested for inhibition of GyrB ATPase activity using an ammonium molybdate/malachite green-based phosphate detection assay (Lanzetta, P. A., L. J. Alvarez, P. S. Reinach, and O. A. Candia, 1979, 100: 95-97). […] Compound potency was based on IC50 measurements determined from reactions performed in the presence of 10 different compound concentrations.
measurement.kind: inhibition at 12.5 µM (%)

molecule | test.value
CCNC(=O)Nc1nc(-c2ccc(C(=O)O)cc2)cs1 [Example 33] | 38.2
CCNC(=O)Nc1cccc(-c2cccc(C(=O)OCC)c2)n1 [Example 15] | 97.9
CCNC(=O)Nc1ccc(-c2nc(C(=O)NC)c(C(=O)O)s2)cn1 [Example 24] | 99.1
CCNC(=O)Nc1cc(-c2nc(CC)cs2)c(-c2cncc(C(N)=O)c2)cn1 [Example 119] | 103
CCNC(=O)Nc1cc(-c2nc(C(F)(F)F)cs2)c(-c2ncc(C(=O)NC)s2)cn1 [Example 127] | 97
CCNC(=O)Nc1ccc(-c2nc(-c3nccn3C)c(C(=O)OC)s2)cn1 [Example 75] | 93.5
CCNC(=O)Nc1cc(-c2ccccc2)c(-c2cncc(C(N)=O)c2)cn1 [Example 114] | 105
CCNC(=O)Nc1ccc(-c2nc(-c3ncnn3C)c(C(N)=O)s2)cn1 [Example 157] | 101
CCNC(=O)Nc1cc(-c2nc(C(F)(F)F)cs2)c(-c2cncc(C(=O)NC3CC3)c2)cn1 [Example 126] | 96.2
CCNC(=O)Nc1ccc(-c2nc(C(=O)NC3CC3)c(C(=O)O)s2)cn1 [Example 25] | 99.5
CCNC(=O)Nc1ccc(-c2nc3cccc(C(=O)O)c3s2)cn1 [Example 20] | 98.4
CCNC(=O)Nc1nc(-c2ccc(C(=O)OC)cc2)cs1 [Example 41] | 26.9
CCNC(=O)Nc1ccc(-c2ccc3c(c2)c(=O)c(C(=O)O)cn3CC(F)F)cn1 [Example 49] | 37.8
CCNC(=O)Nc1ncc(-c2ncc(C(=O)O)s2)cn1 [Example 30] | 62.9
CCNC(=O)Nc1ccc(-c2nc(C(=O)N[C@@H](C)COC)c(C(N)=O)s2)cn1 [Example 117] | 101
CCNC(=O)Nc1ccc(-c2nc(C(=O)N(C)C)c(C(=O)NC(C)(C)C)s2)cn1 [Example 159] | 95.3
CCNC(=O)Nc1ccc(-c2nc(-c3nccn3C)c(C(=O)N(C)C)s2)cn1 [Example 112] | 99.9
CCNC(=O)Nc1nc(-c2cccc(C(=O)O)c2)cs1 [Example 142] | 0.68

---

Quick reference for inhibition at 12.5 µM among some compounds
# system.tested: S. aureus (SAU) GyrB ATPase (Staphylococcus aureus)
# assay.comment: S. aureus GyrB ATPase inhibition, ammonium molybdate/malachite green phosphate detection assay
# Assay type: biochemical
# experimental.context: read-out: S. aureus (SAU) GyrB ATPase % Inhibition, compound concentration 12.5 μM
# Experimental: Compounds were tested for inhibition of GyrB ATPase activity using an ammonium molybdate/malachite green-based phosphate detection assay (Lanzetta, P. A., L. J. Alvarez, P. S. Reinach, and O. A. Candia, 1979, 100: 95-97). […] Compound potency was based on IC50 measurements determined from reactions performed in the presence of 10 different compound concentrations.
measurement.kind: inhibition at 12.5 µM (%)

compound | measurement.kind | test.value
CCNC(=O)Nc1ccc(-c2nc(C(=O)N(C)C)c(C(=O)NC3CCCC3)s2)cn1 [Example 58] | inhibition at 12.5 µM | 89.3
CCCCNC(=O)c1nc(-c2ccc(NC(=O)NCC)nc2)sc1C(=O)NOC [Example 36] | inhibition at 12.5 µM | 4.84
CCNC(=O)Nc1cc(-c2ccccc2)c(-c2ncc(C(=O)O)s2)cn1 [Example 97] | inhibition at 12.5 µM | 101
CCNC(=O)Nc1ccc(-c2ccc3c(c2)c(=O)c(C(=O)O)cn3CCN2CCOCC2)cn1 [Example 48] | inhibition at 12.5 µM | 101
CCNC(=O)Nc1ccc(-c2nc(C(=O)NC)c(C(N)=O)s2)cn1 [Example 115] | inhibition at 12.5 µM | 99.2
CCNC(=O)Nc1ccc(-c2nc(C(=O)N[C@@H](C)COC)c(C(=O)O)s2)cn1 [Example 92] | inhibition at 12.5 µM | 101
CCNC(=O)Nc1ccc(-c2nc(C(C)=O)c(C(N)=O)s2)cn1 [Example 154] | inhibition at 12.5 µM | 99.8
CCNC(=O)Nc1ccc(-c2cccc(C(=O)OC)c2)cn1 [Example 6] | inhibition at 12.5 µM | 99.7
CCNC(=O)Nc1ccc(-c2nc(C(C)=O)c(C(=O)O)s2)cn1 [Example 27] | inhibition at 12.5 µM | 99.1

---

# system.tested: S. aureus (SAU) GyrB ATPase (Staphylococcus aureus)
# assay.comment: S. aureus GyrB ATPase inhibition, ammonium molybdate/malachite green phosphate detection assay
# Assay type: biochemical
# experimental.context: read-out: S. aureus (SAU) GyrB ATPase % Inhibition, compound concentration 12.5 μM
Quick reference for inhibition at 12.5 µM among some compounds

record.smiles | inhibition at 12.5 µM
CCNC(=O)Nc1ccc(-c2nc(C(=O)NC(C)(C)C)c(C(N)=O)s2)cn1 | 101%
CCNC(=O)Nc1ccc(-c2nc(-c3nccn3CCOC)c(C(=O)OC)s2)cn1 | 93%
CCCCNC(=O)c1nc(-c2ccc(NC(=O)NCC)nc2)sc1C(=O)O | 70.5%
CCNC(=O)Nc1cc(-c2nc(CC)cs2)c(-c2cccc(C(=O)O)c2)cn1 | 99.7%

---

# system.tested: S. aureus (SAU) GyrB ATPase (Staphylococcus aureus, UniProt P0A0K8)
# Sequence (P0A0K8 whole entry): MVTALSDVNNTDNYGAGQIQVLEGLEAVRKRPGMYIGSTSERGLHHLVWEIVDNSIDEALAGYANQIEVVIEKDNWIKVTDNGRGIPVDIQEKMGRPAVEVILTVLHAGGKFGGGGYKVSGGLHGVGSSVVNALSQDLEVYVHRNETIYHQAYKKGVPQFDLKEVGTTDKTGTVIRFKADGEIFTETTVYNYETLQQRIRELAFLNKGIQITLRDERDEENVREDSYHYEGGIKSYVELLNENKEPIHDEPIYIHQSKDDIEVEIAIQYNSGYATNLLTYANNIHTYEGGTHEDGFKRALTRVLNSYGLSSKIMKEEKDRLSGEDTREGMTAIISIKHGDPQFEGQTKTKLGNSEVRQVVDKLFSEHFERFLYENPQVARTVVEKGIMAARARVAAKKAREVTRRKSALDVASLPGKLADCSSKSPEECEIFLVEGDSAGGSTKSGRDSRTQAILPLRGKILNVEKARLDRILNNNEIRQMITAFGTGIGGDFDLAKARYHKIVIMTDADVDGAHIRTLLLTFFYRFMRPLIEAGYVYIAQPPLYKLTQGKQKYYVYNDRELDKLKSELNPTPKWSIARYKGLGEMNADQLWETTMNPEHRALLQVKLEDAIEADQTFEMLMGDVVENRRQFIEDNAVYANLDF
# Sequence (P0AES4 whole entry, further chain): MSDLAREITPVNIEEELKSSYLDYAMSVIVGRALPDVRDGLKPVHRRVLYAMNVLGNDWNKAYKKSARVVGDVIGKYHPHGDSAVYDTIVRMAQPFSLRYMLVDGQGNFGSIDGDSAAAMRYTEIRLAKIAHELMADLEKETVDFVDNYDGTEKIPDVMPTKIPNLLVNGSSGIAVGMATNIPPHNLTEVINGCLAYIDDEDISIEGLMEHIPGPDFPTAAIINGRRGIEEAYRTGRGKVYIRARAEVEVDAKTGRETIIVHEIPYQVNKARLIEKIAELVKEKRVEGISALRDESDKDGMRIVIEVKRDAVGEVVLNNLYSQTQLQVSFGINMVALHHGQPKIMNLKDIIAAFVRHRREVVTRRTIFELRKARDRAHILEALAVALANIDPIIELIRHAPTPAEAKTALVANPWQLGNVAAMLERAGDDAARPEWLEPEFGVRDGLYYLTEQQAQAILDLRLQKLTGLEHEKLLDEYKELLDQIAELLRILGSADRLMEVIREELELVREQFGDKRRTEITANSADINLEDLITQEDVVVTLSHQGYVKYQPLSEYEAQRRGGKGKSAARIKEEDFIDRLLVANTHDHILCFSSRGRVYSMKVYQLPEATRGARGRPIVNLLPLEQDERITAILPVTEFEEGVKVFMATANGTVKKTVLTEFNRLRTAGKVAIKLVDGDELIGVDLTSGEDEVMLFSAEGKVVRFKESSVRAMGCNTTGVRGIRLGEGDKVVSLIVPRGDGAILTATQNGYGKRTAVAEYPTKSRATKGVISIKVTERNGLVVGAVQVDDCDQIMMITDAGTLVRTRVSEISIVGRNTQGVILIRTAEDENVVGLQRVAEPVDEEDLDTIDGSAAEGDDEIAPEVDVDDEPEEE
# assay.comment: S. aureus GyrB ATPase inhibition, ammonium molybdate/malachite green phosphate detection assay
# Type: biochemical
# experimental.context: read-out: S. aureus (SAU) GyrB ATPase % Inhibition, compound concentration 12.5 μM
Quick reference for inhibition at 12.5 µM among some molecules
measurement.kind: inhibition at 12.5 µM (%)

record.smiles | test.value
CCNC(=O)Nc1ccc(-c2nc(C(=O)NC(C)(C)C)c(C(=O)OCC)s2)cn1 | 88.2
CCNC(=O)Nc1ccc(-c2ccc3nc(C(=O)OC)cn3c2)cn1 | 92.6
CCNC(=O)Nc1ccc(-c2nc(-c3ncnn3C)c(C(=O)N(C)C)s2)cn1 | 102
CCNC(=O)Nc1cc(-c2nc(CC)cs2)c(-c2cncc(C(=O)N(C)C)c2)cn1 | 101
CCNC(=O)Nc1ccc(-c2nc(C(=O)NC3CC3)c(C(N)=O)s2)cn1 | 91.8
CCNC(=O)Nc1ccc(-c2nc(C(=O)N[C@@H](C)COC)c(C(=O)N(C)C)s2)cn1 | 102

---

# system.tested: S. aureus (SAU) GyrB ATPase (Staphylococcus aureus)
# assay.comment: S. aureus GyrB ATPase inhibition, ammonium molybdate/malachite green phosphate detection assay
# Assay type: biochemical
# experimental.context: read-out: S. aureus (SAU) GyrB ATPase % Inhibition, compound concentration 12.5 μM

record.smiles | inhibition at 12.5 µM
CCCCNC(=O)c1nc(-c2cnc(NC(=O)NCC)cc2-c2nc(CC)cs2)sc1C(=O)O | 100%
CCNC(=O)Nc1cc(-c2nc(C(F)(F)F)cs2)c(-c2cncc(C(=O)N[C@@H](C)COC)c2)cn1 | 95.1%
CCCCNC(=O)c1nc(-c2ccc(NC(=O)NCC)nc2)sc1C(=O)OCC | 92.6%
CCNC(=O)Nc1ccc(-c2ccc(C(=O)OC)cc2)cn1 | 97.4%

---

# system.tested: UniProtKB P0A0K8
# assay.comment: S. aureus GyrB ATPase inhibition, ammonium molybdate/malachite green phosphate detection assay
# Type: biochemical
# experimental.context: read-out: S. aureus (SAU) GyrB ATPase % Inhibition, compound concentration 12.5 μM
Quick reference for inhibition at 12.5 µM among some molecules

molecule | inhibition at 12.5 µM
CCNC(=O)Nc1ccc(-c2nc(C(=O)NCCOC)c(C(N)=O)s2)cn1 [Example 116] | 98.7%
CCCCNC(=O)c1nc(-c2cnc(NC(=O)NCC)cc2-c2ccccc2)sc1C(=O)O [Example 98] | 99.3%
CCNC(=O)Nc1ccc(-c2ccc3nc(C)c(C(N)=O)n3c2)cn1 [Example 155] | 82.3%
CCNC(=O)Nc1cc(-c2ccc(F)nc2)c(-c2cncc(C(=O)OCC)c2)cn1 [Example 86] | 99.9%
CCNC(=O)Nc1ccc(-c2nc(C(=O)N(C)C)c(C(=O)O)s2)cn1 [Example 149] | 97.5%
CCNC(=O)Nc1ccc(-c2nc(C(C)=O)c(C(=O)N(C)C)s2)cn1 [Example 153] | 71.4%
CCNC(=O)Nc1ccc(-c2ccc3nc(C)c(C(=O)O)n3c2)cn1 [Example 148] | 94.2%
CCNC(=O)Nc1ccc(-c2nc(C(N)=O)c(C(N)=O)s2)cn1 [Example 152] | 69.4%
CCNC(=O)Nc1ccc(-c2nc(-c3ncnn3C)c(C(=O)OC)s2)cn1 [Example 72] | 80.3%
CCNC(=O)Nc1cccc(-c2cccc(C(=O)N(C)C)c2)n1 [Example 156] | 43%
CCNC(=O)Nc1ccc(-c2nc(C(=O)NC(C)C)c(C(=O)N(C)C)s2)cn1 [Example 67] | 92.5%
CCNC(=O)Nc1cc(-c2nc(C(F)(F)F)cs2)c(-c2cncc(C(=O)NC)c2)cn1 [Example 122] | 85.8%
CCNC(=O)Nc1cc(-c2cncc(F)c2)c(-c2cncc(C(=O)O)c2)cn1 [Example 69] | 88.5%
CCNC(=O)Nc1ccc(-c2nc(-c3nccn3C)c(C(=O)O)s2)cn1 [Example 93] | 99.1%
CCNC(=O)Nc1cc(-c2ccc(F)nc2)c(-c2cncc(C(=O)O)c2)cn1 [Example 104] | 89.9%
CCNC(=O)Nc1ccc(-c2nc(-c3nccn3CCOC)c(C(=O)O)s2)cn1 [Example 89] | 86.1%
CCCCNC(=O)c1sc(-c2ccc(NC(=O)NCC)nc2)nc1C(=O)N(C)C [Example 158] | 92.6%
CC(C)NC(=O)Nc1cc(-c2nc(C(F)(F)F)cs2)c(-c2cncc(C(=O)O)c2)cn1 [Example 105] | 94.8%
CCNC(=O)Nc1cc(-c2nc(C(C)(C)C)cs2)c(-c2cncc(C(=O)O)c2)cn1 [Example 145] | 101%
CCNC(=O)Nc1cccc(-c2cccc(C(=O)O)c2)n1 [Example 31] | 100%
CCNC(=O)Nc1cc(-c2nc(C(F)(F)F)cs2)c(-c2cncc(C(=O)O)c2)cn1 [Example 101] | 98.3%
CCNC(=O)Nc1ccc(-c2ccc(C(=O)O)cc2)cn1 [Example 23] | 92.5%
CCNC(=O)Nc1ccc(-c2nc(C(=O)N(C)C)c(C(=O)OCC)s2)cn1 [Example 140] | 76.6%
CCNC(=O)Nc1ccc(-c2ccc(C(=O)OC)cn2)cn1 [Example 5] | 63.7%
CCNC(=O)Nc1cc(-c2ccccc2)c(-c2cncc(C(=O)OCC)c2)cn1 [Example 77] | 101%
CCNC(=O)Nc1ncc(-c2cccc(C(=O)OC)c2)cn1 [Example 13] | 99%
CCNC(=O)Nc1ncc(-c2nc3cccc(C(=O)OCC)c3s2)cn1 [Example 135] | 0.52%
CCC(C)NC(=O)Nc1cc(-c2nc(C(F)(F)F)cs2)c(-c2cncc(C(=O)NC)c2)cn1 (centres unmarked) [Example 130] | 98.7%
CCNC(=O)Nc1ccc(-c2nc(C(=O)OCC)cs2)cn1 [Example 2] | 99.1%
CCNC(=O)Nc1cccc(-c2ccc(C(=O)O)cc2)n1 [Example 32] | 2.66%
CCNC(=O)Nc1cc(-c2nc(C(F)(F)F)cs2)c(-c2ncc(C(=O)O)s2)cn1 [Example 102] | 98.2%
CCNC(=O)Nc1cc(-c2nc(CC)cs2)c(-c2cccc(C(=O)N(C)C)c2)cn1 [Example 160] | 95.5%
CCNC(=O)Nc1cc(-c2nc(C(F)(F)F)cs2)c(-c2cncc(C(=O)NC3CCCC3)c2)cn1 [Example 125] | 107%
CCNC(=O)Nc1cc(-c2ccccc2)c(-c2cccc(C(=O)O)c2)cn1 [Example 96] | 95.4%
CCCNC(=O)c1nc(-c2ccc(NC(=O)NCC)nc2)sc1C(=O)N(C)C [Example 64] | 92.6%
